Reference source: paper PMC8041433

molecular target: recombinant human AChE (Homo sapiens); experiment: biochemical
Structures can show the parent of a compound that is named as a salt.
REPORTED_ENDPOINT: Efficacy
Reply with just the number.

Known results for compounds:
[[record]]
compound = "COc1cc(C(=O)NCc2ccc(OCCN(C)C)cc2)cc(OC)c1OC [Trimethobenzamide hydrochloride]"
target_desc = "recombinant human AChE (Homo sapiens)"
val = -75.922

[[record]]
compound = "COc1cc2nc(N3CCN(C(=O)C4CCCO4)CC3)nc(N)c2cc1OC (stereo not shown) [Terazosin hydrochloride]"
target_desc = "recombinant human AChE (Homo sapiens)"
val = -49.646

[[record]]
compound = "CCOP(=S)(OCC)Oc1cc(-c2ccccc2)on1"
target_desc = "recombinant human AChE (Homo sapiens)"
val = -107.392


Can you look up the measured Efficacy of CC(C)C[C@H]1C(=O)N2CCC[C@H]2[C@]2(O)O[C@](NC(=O)[C@@H]3C=C4c5cccc6[nH]c(Br)c(c56)C[C@H]4N(C)C3)(C(C)C)C(=O)N12 [Bromocriptine mesylate] for me? -70.597

Can you look up the measured Efficacy of CCOP(=O)(OCC)Oc1nc(Cl)c(Cl)cc1Cl [Chlorpyrifos oxon, reference compound] for me? -95.546

Can you look up the measured Efficacy of CCOP(=S)(Oc1ccc([N+](=O)[O-])cc1)c1ccccc1 (stereo not shown) for me? 0

Can you look up the measured Efficacy of CCCCCCCCCC[N+](C)(CCCCCCCCCC)CCC[Si](OC)(OC)OC.[Cl-] [Disiquonium chloride] for me? -65.382

Can you look up the measured Efficacy of CCOC(=O)CCN(SN(C)C(=O)Oc1cccc2c1OC(C)(C)C2)C(C)C for me? -95.401

* * *

target: recombinant human AChE (Homo sapiens, UniProt P22303); test: biochemical; settings: potency (IC50), Enzyme
Sequence (P22303 32-614): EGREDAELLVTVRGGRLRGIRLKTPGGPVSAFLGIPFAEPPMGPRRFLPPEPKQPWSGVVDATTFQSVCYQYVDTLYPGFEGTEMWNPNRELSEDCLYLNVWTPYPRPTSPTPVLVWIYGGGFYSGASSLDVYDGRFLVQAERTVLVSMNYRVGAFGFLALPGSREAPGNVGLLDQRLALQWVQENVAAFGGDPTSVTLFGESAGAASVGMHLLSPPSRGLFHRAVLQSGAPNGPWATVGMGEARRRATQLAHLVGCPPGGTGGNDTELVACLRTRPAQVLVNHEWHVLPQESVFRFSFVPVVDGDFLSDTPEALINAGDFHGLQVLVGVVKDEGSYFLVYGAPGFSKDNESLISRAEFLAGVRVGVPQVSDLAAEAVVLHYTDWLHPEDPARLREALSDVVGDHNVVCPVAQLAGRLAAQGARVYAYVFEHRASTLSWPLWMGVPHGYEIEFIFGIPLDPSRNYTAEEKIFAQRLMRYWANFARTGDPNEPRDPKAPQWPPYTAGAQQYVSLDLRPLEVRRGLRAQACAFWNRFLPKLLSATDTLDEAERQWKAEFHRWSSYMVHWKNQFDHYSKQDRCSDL
REPORTED_ENDPOINT: log10 of IC50 (log10 of the value in µM)
Response schema: value (number) is log10 of IC50 in units of µM.

[[record]]
compound = "CCOP(=S)(OCC)OP(=S)(OCC)OCC"
val = 1.00

[[record]]
compound = "CCOP(=S)(Oc1cnc(C(C)(C)C)nc1)OC(C)C (stereo not shown)"
val = 1.66

[[record]]
compound = "CN1CCc2cc(Cl)c(O)cc2[C@H]2c3ccccc3CC[C@@H]21 [Ecopipam, reference compound]"
val = 1.30

[[record]]
compound = "O=c1[nH]c2ccc([S+]([O-])CCN3CCC(Cc4ccc(F)cc4)CC3)cc2o1 (stereo not shown) [Besonprodil, reference compound]"
val = 0.90

[[record]]
compound = "CCOC(=O)CC(SP(=O)(OC)OC)C(=O)OCC (stereo not shown)"
val = 0.16


Can you look up the measured log10 of IC50 of CCOP(=S)(OCC)OC(Cl)C(Cl)(Cl)Cl (stereo not shown) for me? 1.78

* * *

biological target: recombinant human AChE (Homo sapiens); assay: biochemical
Structures can show the parent of a compound that is named as a salt.
REPORTED_ENDPOINT: CC-v2 (curve classes)
Reply with just the number.

[[record]]
compound = "CCOP(=S)(Oc1ccc([N+](=O)[O-])cc1)c1ccccc1 (stereo not shown)"
val = 4

[[record]]
compound = "CN(C)C(=S)SC(=S)N(C)C [Tetramethylthiuram monosulfide]"
val = 4

[[record]]
compound = "CNC(=O)Oc1ccccc1C(C)C"
val = -1.1

[[record]]
compound = "CCOP(=S)(OCC)SC(CCl)N1C(=O)c2ccccc2C1=O (stereo not shown)"
val = -2.1

[[record]]
compound = "CCOP(=O)(Sc1ccccc1)Sc1ccccc1"
val = -2.1


Can you look up the measured CC-v2 (curve classes) of COCCCN1CCC(NC(=O)c2cc(Cl)c(N)c3c2OCC3)CC1 [Prucalopride] for me? -2.4

Can you look up the measured CC-v2 (curve classes) of COc1cc2nc(N3CCN(C(=O)C4CCCO4)CC3)nc(N)c2cc1OC (stereo not shown) [Terazosin hydrochloride] for me? -2.2

Can you look up the measured CC-v2 (curve classes) of Cl.Clc1cc(Cl)c2c(c1)N=C1CCCCCN1C2 for me? -1.1

Can you look up the measured CC-v2 (curve classes) of CC[n+]1c(-c2ccccc2)c2cc(N)ccc2c2ccc(N)cc21 [Ethidium bromide] for me? -2.2

Can you look up the measured CC-v2 (curve classes) of CCN(CC)C(=O)[C@@H]1C=C2c3cccc4[nH]cc(c34)C[C@H]2N(C)C1 [Lysergide] for me? -2.2

Can you look up the measured CC-v2 (curve classes) of CCOC(=O)CC(SP(=O)(OC)OC)C(=O)OCC (stereo not shown) for me? -1.1

Can you look up the measured CC-v2 (curve classes) of Cc1c(Cl)c(=O)oc2cc(OP(=O)(OCCCl)OCCCl)ccc12 for me? -1.1

* * *

target: recombinant human AChE (Homo sapiens); assay: biochemical
Structures can show the parent of a compound that is named as a salt.
Output label 1 for records whose CC-v2 (curve classes) is lower than -1, label 0 for records at or above -1.

[[record]]
compound = "Nc1c(/N=N/c2ccc(-c3ccc(/N=N/c4cc(S(=O)(=O)O)c5ccccc5c4N)cc3)cc2)cc(S(=O)(=O)O)c2ccccc12"
discrete_label = "label 1"

[[record]]
compound = "Nc1ccc(N)c(Cl)c1.O=S(=O)(O)O [2-Chloro-1,4-diaminobenzene sulfate]"
discrete_label = "label 1"

[[record]]
compound = "CCOP(=O)(OCC)OC(=CCl)c1ccc(Cl)cc1Cl"
discrete_label = "label 1"

[[record]]
compound = "CCOP(=S)(OCC)SCSC(C)(C)C"
discrete_label = "label 0"

[[record]]
compound = "CCCCOc1ccc(C(=O)CCN2CCCCC2)cc1 [Dyclonine hydrochloride]"
discrete_label = "label 1"


Dear reviewer, please state whether O=C(O)/C=C/C(=O)O.O=C1c2ccccc2C(=O)N1CCc1noc(-c2ccc(CN3CCCCCC3)s2)n1 has CC-v2 (curve classes) strictly beneath -1. label 1

Dear reviewer, please state whether COP(N)(=S)Oc1ccccc1C(=O)OC(C)C (centres unmarked) has CC-v2 (curve classes) strictly beneath -1. label 0

Dear reviewer, please state whether CNC(=O)ON=C(CSC)C(C)(C)C has CC-v2 (curve classes) strictly beneath -1. label 1

Dear reviewer, please state whether CNC(=O)Oc1cc(C)cc(C(C)C)c1 has CC-v2 (curve classes) strictly beneath -1. label 1

Dear reviewer, please state whether CCOP(=S)(OCC)SCSP(=S)(OCC)OCC has CC-v2 (curve classes) strictly beneath -1. label 1

Dear reviewer, please state whether CCc1ccc(C(=O)C(C)CN2CCCCC2)cc1.Cl (centres unmarked) [Eperisone hydrochloride, reference compound] has CC-v2 (curve classes) strictly beneath -1. label 1

Dear reviewer, please state whether Cc1ccc(CCn2c3c(c4cc(Cl)ccc42)CN(C)CC3)cn1 has CC-v2 (curve classes) strictly beneath -1. label 1

Dear reviewer, please state whether N#Cc1sc2c(=O)c3ccccc3c(=O)c=2sc1C#N has CC-v2 (curve classes) strictly beneath -1. label 0

Dear reviewer, please state whether CC(C)=CCN1CC[C@@]2(C)c3cc(O)ccc3C[C@@H]1[C@@H]2C.O=C(O)CCC(=O)O [(-)-Pentazocine succinate, reference compound] has CC-v2 (curve classes) strictly beneath -1. label 1

Dear reviewer, please state whether CN1CCc2cc(Cl)c(O)cc2[C@H]2c3ccccc3CC[C@@H]21 [Ecopipam, reference compound] has CC-v2 (curve classes) strictly beneath -1. label 1

Dear reviewer, please state whether CNC(=O)Oc1ccc(N(C)C)c(C)c1 has CC-v2 (curve classes) strictly beneath -1. label 1

Dear reviewer, please state whether Nc1c2c(nc3ccccc13)CCCC2O.O=C(O)/C=C\C(=O)O (centres unmarked) [Hydroxytacrine maleate, reference compound] has CC-v2 (curve classes) strictly beneath -1. label 1

Dear reviewer, please state whether Cc1nc(N(C)C)nc(OC(=O)N(C)C)c1C has CC-v2 (curve classes) strictly beneath -1. label 1

Dear reviewer, please state whether N=C(N)NC(=O)c1nc(Cl)c(N)nc1N [Amiloride hydrochloride] has CC-v2 (curve classes) strictly beneath -1. label 0

Dear reviewer, please state whether CCOC(=O)C(SP(=S)(OC)OC)c1ccccc1 (centres unmarked) [Phenthoate] has CC-v2 (curve classes) strictly beneath -1. label 1

Dear reviewer, please state whether CNC(=O)O/N=C/C(C)(C)[S+](C)[O-] (centres unmarked) [Aldicarb sulfoxide] has CC-v2 (curve classes) strictly beneath -1. label 1

Dear reviewer, please state whether O=C(O)CC[N+](=O)[O-] has CC-v2 (curve classes) strictly beneath -1. label 1

Dear reviewer, please state whether COc1nn(CSP(=S)(OC)OC)c(=O)s1 has CC-v2 (curve classes) strictly beneath -1. label 0

Dear reviewer, please state whether O=C(CCC1CCN(Cc2ccccc2)CC1)c1ccc2c(c1)NCCCC2.O=C(O)/C=C/C(=O)O [Zanapezil fumerate, reference compound] has CC-v2 (curve classes) strictly beneath -1. label 1

Dear reviewer, please state whether CCOP(=S)(OCC)Oc1cc(C)nc(N(CC)CC)n1 has CC-v2 (curve classes) strictly beneath -1. label 0

Dear reviewer, please state whether CN1C(=O)COc2c(C(=O)NC3CN4CCC3CC4)cc(Cl)cc21 (centres unmarked) [Azasetron hydrochloride, reference compound] has CC-v2 (curve classes) strictly beneath -1. label 1

Dear reviewer, please state whether CCOC(=O)CCN(SN(C)C(=O)Oc1cccc2c1OC(C)(C)C2)C(C)C has CC-v2 (curve classes) strictly beneath -1. label 1
